Tested on: HEK-293T
Assay: Multiplex assay against HEK293T
Assay type: toxicity, cell-based
Details: human, 48 h, 1 µM, compound concentration 1 uM, replicate 1
MEASUREMENT NAME: Population Hoechst High Intensity Objects (%)
A number alone suffices; assume %.

Known results for molecules:
LINE NOTATION	MEASUREMENT UNITS	RESULT VALUE
Cl.O=c1c2cccn2c2ccccc2n1CCCN1CCC(c2ccc(Cl)cc2)CC1	%	7
Cl.Oc1ccc2c3c1O[C@H]1c4[nH]c5c(c4C[C@@]4(O)[C@@H](C2)N(CC2CC2)CC[C@]314)C[C@@]1(O)[C@H]2Cc3ccc(O)c4c3[C@@]1(CCN2CC1CC1)[C@H]5O4	%	12
Cc1cc(C)c(S(=O)(=O)N(Cc2ccc(-c3cccc(S(C)(=O)=O)c3)cc2)Cc2ccc(C(F)(F)F)o2)c(C)c1	%	8

Enter reported Population Hoechst High Intensity Objects (%) observed with HEK-293T for CCN1CCN(Cc2ccc(Nc3ncc(F)c(-c4cc(F)c5nc(C)n(C(C)C)c5c4)n3)nc2)CC1.CS(=O)(=O)O
17

###

Test system: HEK-293T
Test: Multiplex assay against HEK293T
Type: toxicity, cell-based
Settings: human, 24 h, 10 µM, compound concentration 10 uM, replicate 2
# Lookup of reported Population Normal (%) keyed by entry
Give just the number in %; leave the unit off.

Solved entries (count: 3):
MOLECULE	Population Normal (%)
Cl.Oc1ccc2c3c1O[C@H]1c4[nH]c5c(c4C[C@@]4(O)[C@@H](C2)N(CC2CC2)CC[C@]314)C[C@@]1(O)[C@H]2Cc3ccc(O)c4c3[C@@]1(CCN2CC1CC1)[C@H]5O4	96
CCN1CCN(c2ccc(Nc3cc(N(C)C(=O)Nc4c(Cl)c(OC)cc(OC)c4Cl)ncn3)cc2)CC1	95
C=C1/C(=C\C=C2/CCC[C@]3(C)[C@@H]([C@H](C)/C=C/[C@H](C)C(C)C)CC[C@@H]23)C[C@@H](O)C[C@@H]1O	98

Look up Population Normal (%): CCOc1cc2ncc(C#N)c(Nc3ccc(OCc4ccccn4)c(Cl)c3)c2cc1NC(=O)/C=C/CN(C)C
74

Fill blank: measured Population Normal (%) of the molecule Cl.O=c1c2cccn2c2ccccc2n1CCCN1CCC(c2ccc(Cl)cc2)CC1 is ____.
83

What value of Population Normal (%) has been recorded for this entry: CCc1cccc(CC)c1NC(=O)c1nn(C)c2c1CCc1cnc(Nc3ccc(C(=O)NC4CCN(C)CC4)cc3OC(F)(F)F)nc1-2
94

What does the record list as Population Normal (%) for O=C(Nc1ccc(-n2nc(-c3cccnc3)cc2C(F)(F)F)cn1)c1ccc(-c2ccccc2)c(F)c1 ?
97

Sample CN(C)C(=O)C(CCN1CCC(O)(c2ccc(Cl)cc2)CC1)(c1ccccc1)c1ccccc1.Cl [LOPERAMIDE HYDROCHLORIDE] — what was its Population Normal (%)?
87

Requested read-out: Population Normal (%). Entry: COc1cc2ncnc(Nc3ccc(F)c(Cl)c3)c2cc1NC(=O)/C=C/CN1CCCCC1 [DACOMITINIB ANHYDROUS]
97

Could you share which Population Normal (%) value was measured for O=C1NC(=O)C(c2cnc3ccccn23)=C1c1cn2c3c(cc(F)cc13)CN(C(=O)N1CCCCC1)CC2 ?
91
